Source listed as ChEMBL document CHEMBL1821643.

Listing of recorded IC50 by entry.
test system: AGS; experiment: Cytotoxicity against human AGS cells; assay type: functional, cell-based

{"columns": ["compound", "prefix operator", "IC50 / µM"],
 "data": [
  ["CC1(C)C=C2[C@H]3C[C@@H](O)[C@@H]4[C@@]5(C)CC[C@@H](O)C(C)(C)[C@@H]5CC[C@@]4(C)[C@]3(C)CC[C@@]2(C(=O)O)CC1 [FATSICARPAIN E]", "=", 47.6],
  ["CC1(C)CC[C@@]23CC[C@]4(C)[C@@](C=C[C@@H]5[C@@]6(C)CC[C@@H](O)[C@@](C)(CO)[C@@H]6CC[C@]54C)(OC2=O)[C@@H]3C1 [FATSICARPAIN G]", "=", 33.2],
  ["CC1(C)CC[C@]2(C(=O)O)CC[C@]3(C)C(=CC=C4[C@@]5(C)CC[C@@H](O)C(C)(C)[C@@H]5CC[C@]43C)[C@@H]2C1 [FATSICARPAIN D]", "=", 42.8],
  ["CC1(C)CC[C@]2(C(=O)O)CC[C@]3(C)C(=C2C1)C=C[C@@H]1[C@@]2(C)CC[C@@H](O)C(C)(C)[C@@H]2CC[C@]13C", ">", 50]
]}

====

tested on: Enterococcus faecalis; experiment: Antimicrobial activity against Enterococcus faecalis ATCC 29212 after 24 hrs by broth microdilution method; format: functional, organism-based
Activity calls are given as the source filed them. The calls are words filed in the database; no cut-off is given here.

{"columns": ["test smiles", "MIC"],
 "data": [
  ["CC1(C)CC[C@@]23CC[C@]4(C)[C@@](C=C[C@@H]5[C@@]6(C)CC[C@@H](O)[C@@](C)(CO)[C@@H]6CC[C@]54C)(OC2=O)[C@@H]3C1", "inactive"],
  ["CO[C@@H]1C=C2[C@@H]3CC(C)(C)CC[C@]3(C(=O)O)CC[C@@]2(C)[C@]2(C)CC[C@H]3C(C)(C)[C@H](O)CC[C@]3(C)[C@@H]12", "inactive"],
  ["CC1(C)CC[C@]2(C(=O)O)CC[C@]3(C)C(=C2C1)C=C[C@@H]1[C@@]2(C)CC[C@@H](O)[C@@](C)(CO)[C@@H]2CC[C@]13C", "inactive"]
]}

====

Listing of recorded IC50 by entry.
tested on: AGS; assay: Cytotoxicity against human AGS cells; assay type: functional, cell-based
reported endpoint: IC50 (µM)

{"columns": ["test smiles", "unit of measure", "prefix operator", "observed"],
 "data": [
  ["CC1(C)CC[C@]2(C(=O)O)CC[C@]3(C)C(=C2C1)C=C[C@@H]1[C@@]2(C)CC[C@@H](O)[C@@](C)(CO)[C@@H]2CC[C@]13C", "µM", "=", 10.1],
  ["CC1(C)CC[C@@]23CC[C@]4(C)[C@@](C=C[C@@H]5[C@@]6(C)CC[C@@H](O)C(C)(C)[C@@H]6CC[C@]54C)(OC2=O)[C@@H]3C1", "µM", "=", 9],
  ["CO[C@@H]1C=C2[C@@H]3CC(C)(C)CC[C@]3(C(=O)O)CC[C@@]2(C)[C@]2(C)CC[C@H]3C(C)(C)[C@H](O)CC[C@]3(C)[C@@H]12", "µM", ">", 50],
  ["CC1(C)CC[C@]2(C(=O)O)CC[C@]3(C)C(=C2C1)C=C[C@@H]1[C@@]2(C)CC[C@@H](O)[C@@](C)(C=O)[C@@H]2CC[C@]13C", "µM", ">", 50],
  ["CC1(C)CC[C@]2(C(=O)O)CC[C@]3(C)C(=C2C1)C=C[C@@H]1[C@@]2(C)CC[C@H](OS(=O)(=O)O)C(C)(C)[C@@H]2CC[C@]13C", "µM", ">", 50]
]}
